target: hMC3-R (Homo sapiens); construct: expressed in transfected cells; assay: competitive inhibition binding assay, 125I-NDP-α-MSH, membranes; conditions: 1 μM compound; average of triplicates; read-out: Inhibition at 1 μM MC3-R
Sequence (P41968 whole entry): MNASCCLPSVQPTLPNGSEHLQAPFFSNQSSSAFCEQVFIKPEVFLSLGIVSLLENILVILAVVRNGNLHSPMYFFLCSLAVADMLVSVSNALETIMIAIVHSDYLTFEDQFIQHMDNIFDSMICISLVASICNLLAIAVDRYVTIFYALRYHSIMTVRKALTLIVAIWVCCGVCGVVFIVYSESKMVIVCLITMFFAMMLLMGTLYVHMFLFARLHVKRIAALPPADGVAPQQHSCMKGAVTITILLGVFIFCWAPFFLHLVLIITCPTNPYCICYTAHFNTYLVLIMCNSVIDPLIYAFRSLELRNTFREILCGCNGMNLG
Measured inhibition at 1 µM, listed per entry for reference.
Quick note: give the figure in %, leave out the unit.

The examples below pair each entry with its known result.
{"compound": "NCCCC[C@H]1C(=O)N(CCc2ccc3ccccc3c2)CCN1C(=O)[C@@H](Cc1ccc(Cl)cc1Cl)NC(=O)/C=C/c1ccccc1 [Example 8]", "result.unit": "%", "inhibition at 1 µM": 46}
{"compound": "NCCCC[C@H]1C(=O)N(CCc2ccc3ccccc3c2)CCN1C(=O)[C@@H](Cc1ccc(Cl)cc1Cl)NC(=O)c1ccc(Oc2ccccc2)cc1 [Example 10]", "result.unit": "%", "inhibition at 1 µM": 51}
{"compound": "Cc1ccc(C[C@@H](N)C(=O)N2C[C@@H](C)N(CCc3ccc4ccccc4c3)C[C@@H]2CCCNC(=N)N)c(Cl)c1 [Example 13]", "result.unit": "%", "inhibition at 1 µM": 73}
{"compound": "C[C@@H]1CN(C(=O)[C@H](N)Cc2ccc(Cl)cc2Cl)[C@@H](CCCNC(=N)N)CN1CCc1ccc2ccccc2c1 [Example 11]", "result.unit": "%", "inhibition at 1 µM": 82}

Moving on to the next compound.
[ask] Recorded inhibition at 1 µM for C[C@@H]1CN(CCc2ccc3ccccc3c2)C[C@H](CCCNC(=N)N)N1C(=O)[C@H](N)Cc1ccc(Cl)cc1Cl [Example 17 (R)-CH3] with hMC3-R (Homo sapiens), please?
[reply] 32
